DNA topoisomerase 2-alpha (Homo sapiens, UniProt P11388): reported pIC50 for various compounds.
Sequence (P11388 whole entry): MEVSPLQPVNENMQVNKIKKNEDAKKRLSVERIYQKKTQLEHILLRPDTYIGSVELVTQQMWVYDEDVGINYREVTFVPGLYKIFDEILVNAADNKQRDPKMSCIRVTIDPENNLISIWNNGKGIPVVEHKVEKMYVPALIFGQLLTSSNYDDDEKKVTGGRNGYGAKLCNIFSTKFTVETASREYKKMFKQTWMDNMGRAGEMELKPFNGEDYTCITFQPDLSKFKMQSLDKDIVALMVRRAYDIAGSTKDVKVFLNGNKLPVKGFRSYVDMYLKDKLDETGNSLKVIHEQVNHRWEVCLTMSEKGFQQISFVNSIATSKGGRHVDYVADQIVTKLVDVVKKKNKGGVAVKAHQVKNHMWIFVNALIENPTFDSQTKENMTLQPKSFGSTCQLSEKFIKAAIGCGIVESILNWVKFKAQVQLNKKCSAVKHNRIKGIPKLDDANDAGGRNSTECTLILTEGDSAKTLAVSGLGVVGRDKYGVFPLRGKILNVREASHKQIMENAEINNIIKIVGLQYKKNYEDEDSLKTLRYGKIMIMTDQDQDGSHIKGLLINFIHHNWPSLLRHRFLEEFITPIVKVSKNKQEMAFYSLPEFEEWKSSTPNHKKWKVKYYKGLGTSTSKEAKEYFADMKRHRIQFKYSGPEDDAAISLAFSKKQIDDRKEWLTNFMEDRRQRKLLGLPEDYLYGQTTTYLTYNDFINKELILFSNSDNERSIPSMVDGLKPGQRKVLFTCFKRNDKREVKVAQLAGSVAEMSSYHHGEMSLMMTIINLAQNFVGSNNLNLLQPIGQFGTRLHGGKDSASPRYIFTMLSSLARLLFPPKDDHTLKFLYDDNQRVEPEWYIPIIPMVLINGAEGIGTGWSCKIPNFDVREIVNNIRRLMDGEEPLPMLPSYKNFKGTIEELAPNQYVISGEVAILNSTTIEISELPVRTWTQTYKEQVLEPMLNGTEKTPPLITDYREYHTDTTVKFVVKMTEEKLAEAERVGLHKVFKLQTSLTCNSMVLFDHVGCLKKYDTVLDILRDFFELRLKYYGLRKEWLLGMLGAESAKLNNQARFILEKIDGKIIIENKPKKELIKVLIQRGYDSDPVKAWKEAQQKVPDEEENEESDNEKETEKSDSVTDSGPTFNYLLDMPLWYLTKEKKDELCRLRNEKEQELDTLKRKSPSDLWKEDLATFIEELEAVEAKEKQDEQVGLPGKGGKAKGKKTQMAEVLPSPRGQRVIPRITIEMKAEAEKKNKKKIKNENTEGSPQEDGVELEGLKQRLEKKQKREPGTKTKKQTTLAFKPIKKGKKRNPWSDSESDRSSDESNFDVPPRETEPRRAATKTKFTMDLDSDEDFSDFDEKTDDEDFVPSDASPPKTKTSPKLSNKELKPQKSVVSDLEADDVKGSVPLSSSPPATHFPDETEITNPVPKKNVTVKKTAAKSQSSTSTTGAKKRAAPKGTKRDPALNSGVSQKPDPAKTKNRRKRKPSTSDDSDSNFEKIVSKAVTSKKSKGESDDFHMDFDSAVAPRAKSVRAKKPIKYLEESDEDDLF
pIC50: −log10 of the molar value.
property-name: pIC50

Below, each entry is followed by its recorded pIC50 result.
CN(CCNC(=O)CCCCC(=O)NCCN(C)CCn1nc2c3c(cccc31)C(=O)c1c(Cl)cccc1-2)CCn1nc2c3c(cccc31)C(=O)c1c(Cl)cccc1-2 :: 4.32
CN(CCNC(=O)CCCCCC(=O)NCCN(C)CCn1nc2c3c(cccc31)C(=O)c1c(Cl)cccc1-2)CCn1nc2c3c(cccc31)C(=O)c1c(Cl)cccc1-2 :: 4.66

A. CN(CCNC(=O)CCCC(=O)NCCN(C)CCn1nc2c3c(cccc31)C(=O)c1c(Cl)cccc1-2)CCn1nc2c3c(cccc31)C(=O)c1c(Cl)cccc1-2
B. CN(CCNC(=O)CC(=O)NCCN(C)CCn1nc2c3c(cccc31)C(=O)c1c(Cl)cccc1-2)CCn1nc2c3c(cccc31)C(=O)c1c(Cl)cccc1-2
IN: For the pair A and B , which entry has the numerically smaller recorded pIC50? # answer = label of selected item
OUT: B
